# test protocol: qHTS of pediatric cancer cell lines to identify multiple opportunities for drug repurposing: Primary screen for BT-37 cells (AID 1347094)
# measurement context: BT-37 viability, CellTiter-Glo luminescence, 48 h; series mostly up to 57.3 µM
# Description: Drug repurposing or repositioning has been offered as a strategy for drug development in oncology programs. This approach has special potential for childhood cancers and other rare or orphan diseases, where the expected return on new drug development has been a disincentive to pharmaceuticals. […] We employed a titration-based paradigm (quantitative high-throughput screening or qHTS), where all compounds were tested at multiple concentrations for their effect on cell viability. […]
Inconclusive results are not listed. Calls of active or inactive are those of the source. The call rests on the fitted dose curve; in most records, active means well fitted cell-killing curve with a large enough effect; inconclusive means small, poorly fitted or top-dose-only effect; inactive means flat fitted curve, though single readings scatter.
Outcomes: active, inactive

- molecule: "CC1(C)CCC[C@@]2(C)[C@@H]1CC[C@@]1(C)OC(=O)C[C@H]21"
  assigned category: "inactive"
- molecule: "COc1ccc2cccc(CCNC(C)=O)c2c1"
  assigned category: "inactive"
- molecule: "COc1cc(Nc2ncc(F)c(Nc3ccc4c(n3)NC(=O)C(C)(C)O4)n2)cc(OC)c1OC"
  assigned category: "inactive"
- molecule: "c1cc(-c2sc(-c3ccncc3)c(-c3ccncc3)c2-c2ccncc2)ccn1"
  assigned category: "inactive"
- molecule: "NS(=O)(=O)c1cccc2c1C(=O)c1cccc(O)c1C2=O"
  assigned category: "active"
- molecule: "O=C(O)c1ccc(-c2c[nH]c3ncc(-c4ccccc4)cc23)cc1C1CCCC1"
  assigned category: "inactive"
- molecule: "C[C@H]1[C@H](NC(=O)C(=NOC(C)(C)C(=O)O)c2csc(N)n2)C(=O)N1S(=O)(=O)O"
  assigned category: "inactive"
- molecule: "CCN1CCC[C@H]1CNC(=O)c1cc(S(N)(=O)=O)ccc1OC"
  assigned category: "inactive"
- molecule: "O=C(CCN1CCN(C(=O)OCc2cc(Cl)cc(Cl)c2)CC1)c1ccc2[nH]c(=O)oc2c1"
  assigned category: "inactive"
- molecule: "O=c1cc(-c2cccc3c2Sc2ccccc2S3)oc(N2CCOCC2)c1"
  assigned category: "inactive"
- molecule: "COc1ccccc1N1CCN(CCCNc2cc(=O)n(C)c(=O)n2C)CC1"
  assigned category: "inactive"
- molecule: "C=C1C(=O)OC2C=C(C)CCC=C(C)CCC12 (stereo unspecified)"
  assigned category: "inactive"
- molecule: "O=C(O)C(O)Cc1ccc(O)c(O)c1 (stereo unspecified)"
  assigned category: "inactive"
- molecule: "O=C(O)c1ccc(-c2cc3cccnc3c(-c3ccc4nonc4c3)n2)cc1"
  assigned category: "active"
- molecule: "Cc1cnc(C(=O)O)c[n+]1[O-]"
  assigned category: "inactive"
- molecule: "Cc1c[nH]c(C=C2C(=O)Nc3ccccc32)c1CCC(=O)O"
  assigned category: "inactive"
- molecule: "CC(C)C[C@H](CC(=O)O)C(=O)N[C@@H](Cc1c[nH]c2ccccc12)C(=O)N[C@@H](C)c1ccccc1"
  assigned category: "active"
- molecule: "CCC(=O)O[C@]1(C(=O)CO)CC[C@H]2[C@@H]3CCC4=CC(=O)CC[C@]4(C)[C@@H]3CC[C@@]21C"
  assigned category: "inactive"
- molecule: "CCn1c(C(=O)N(C2CC2)C2CC2)cc2c3c(ncn3C)c(Nc3cc(C)n(C)n3)nc21"
  assigned category: "inactive"
- molecule: "COC(=O)C1=CO[C@@H](O)[C@@H]2C(CO)=CC[C@@H]12"
  assigned category: "inactive"
- molecule: "CCc1ccc(C=C2SC(=S)NC2=O)cc1"
  assigned category: "inactive"
- molecule: "COc1ncc(-c2ccc3nccc(-c4ccnnc4)c3c2)cc1NS(=O)(=O)c1ccc(F)cc1F"
  assigned category: "active"
- molecule: "C[N+](C)(C)CC(=O)O"
  assigned category: "inactive"
- molecule: "CN(C)CCC(c1ccccc1)c1ccccn1 (stereo unspecified)"
  assigned category: "inactive"
- molecule: "O=C(N[C@@H](c1ccccc1)[C@@H]1CCCCN1)c1cccc(C(F)(F)F)c1Cl"
  assigned category: "active"
- molecule: "NC[C@@H]1O[C@@H](O[C@H]2[C@@H](O)[C@H](O[C@@H]3[C@@H](O)[C@@H](N)C[C@H](N)[C@H]3O[C@H]3O[C@H](CN)[C@@H](O)[C@@H](O)[C@H]3N)O[C@H]2CO)[C@H](N)[C@@H](O)[C@@H]1O"
  assigned category: "inactive"
- molecule: "CC1(C)S[C@H]2[C@H](NC(=O)[C@@H](N)c3ccc(O)cc3)C(=O)N2[C@@H]1C(=O)O"
  assigned category: "active"
- molecule: "CON=C(C(=O)N[C@@H]1C(=O)N2C(C(=O)OCOC(=O)C(C)(C)C)=C(C=Cc3scnc3C)CS[C@H]12)c1csc(N)n1"
  assigned category: "inactive"
- molecule: "CC(C)(C)Cn1c(N)nc2ccc(-c3[nH]c(C(C)(C)C)nc3-c3ccc(F)cc3)nc21"
  assigned category: "active"
- molecule: "COc1ccc(-c2cc(=O)c3c(O)cc(O)cc3o2)cc1O"
  assigned category: "active"
- molecule: "Clc1ccc(C(c2ccc(Cl)cc2)n2cc[n+](CC(OCc3ccc(Cl)cc3Cl)c3ccc(Cl)cc3Cl)c2)cc1 (stereo unspecified)"
  assigned category: "active"
- molecule: "O=C1NC(=O)C(c2ccccc2)(c2ccccc2)N1"
  assigned category: "inactive"
- molecule: "C[C@]12CC[C@@H]3c4ccc(O)cc4CC[C@H]3[C@H]1C[C@@H](O)[C@H]2O"
  assigned category: "inactive"
- molecule: "CO[C@H]1C=CO[C@@]2(C)Oc3c(C)c(O)c4c(O)c(c5c(c4c3C2=O)NC2(CCN(CC(C)C)CC2)N=5)=NC(=O)C(C)=CC=C[C@H](C)[C@H](O)[C@@H](C)[C@@H](O)[C@@H](C)[C@H](OC(C)=O)[C@H]1C"
  assigned category: "inactive"
- molecule: "CC(=O)N(C)C1(c2ccccc2)CCN(CCC[C@]2(c3ccc(Cl)c(Cl)c3)CCCN(C(=O)c3ccccc3)C2)CC1"
  assigned category: "active"
- molecule: "O=c1cc(-c2ccc(O)cc2)oc2cc(O)cc(O)c12"
  assigned category: "active"
- molecule: "CC(C)(C)COc1ccc(-n2cc(C(=O)O)cn2)cc1C#N"
  assigned category: "inactive"
- molecule: "CC(C)NCC(O)COc1cccc2[nH]ccc12 (stereo unspecified)"
  assigned category: "inactive"
- molecule: "CC(=O)N[C@@H](CS)C(=O)O"
  assigned category: "inactive"
- molecule: "CCOC(=O)C1=C(N)Oc2ccc(Br)cc2C1C(C#N)C(=O)OCC (stereo unspecified)"
  assigned category: "inactive"
- molecule: "O=C(O)c1cc(-c2ccccc2)nc2ccccc12"
  assigned category: "inactive"

Values were extracted from PubChem BioAssay (NCATS).
